compounds and their reported IC50
Molecular target: PI3kδ (Homo sapiens)
Sequence (O00329 whole entry): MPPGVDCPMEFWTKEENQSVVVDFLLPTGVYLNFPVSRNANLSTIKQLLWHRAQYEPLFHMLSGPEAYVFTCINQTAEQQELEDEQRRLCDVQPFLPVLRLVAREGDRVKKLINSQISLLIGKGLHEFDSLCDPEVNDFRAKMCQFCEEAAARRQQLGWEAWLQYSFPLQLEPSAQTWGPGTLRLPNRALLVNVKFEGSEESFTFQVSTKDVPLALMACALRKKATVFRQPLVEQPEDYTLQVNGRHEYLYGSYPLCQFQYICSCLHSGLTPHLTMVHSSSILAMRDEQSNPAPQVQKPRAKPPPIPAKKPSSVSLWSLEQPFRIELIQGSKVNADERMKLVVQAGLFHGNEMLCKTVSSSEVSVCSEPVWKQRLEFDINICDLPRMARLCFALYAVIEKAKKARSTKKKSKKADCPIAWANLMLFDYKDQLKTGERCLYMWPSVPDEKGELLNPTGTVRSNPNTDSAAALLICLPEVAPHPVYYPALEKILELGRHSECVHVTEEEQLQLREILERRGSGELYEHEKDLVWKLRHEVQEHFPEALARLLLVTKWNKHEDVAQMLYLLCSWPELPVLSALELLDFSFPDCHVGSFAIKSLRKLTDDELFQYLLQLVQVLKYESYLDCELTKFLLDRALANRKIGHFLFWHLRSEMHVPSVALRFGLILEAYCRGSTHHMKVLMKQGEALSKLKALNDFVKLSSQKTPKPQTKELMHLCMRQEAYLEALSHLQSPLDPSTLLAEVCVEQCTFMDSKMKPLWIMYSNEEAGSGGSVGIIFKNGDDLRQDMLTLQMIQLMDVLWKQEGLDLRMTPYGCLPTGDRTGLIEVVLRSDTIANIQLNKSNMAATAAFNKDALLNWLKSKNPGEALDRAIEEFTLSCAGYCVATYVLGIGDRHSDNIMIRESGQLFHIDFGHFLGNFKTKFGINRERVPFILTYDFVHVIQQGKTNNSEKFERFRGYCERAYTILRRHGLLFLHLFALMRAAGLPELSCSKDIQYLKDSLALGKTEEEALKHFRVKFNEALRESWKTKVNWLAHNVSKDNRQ
Sequence (P27986 whole entry partner): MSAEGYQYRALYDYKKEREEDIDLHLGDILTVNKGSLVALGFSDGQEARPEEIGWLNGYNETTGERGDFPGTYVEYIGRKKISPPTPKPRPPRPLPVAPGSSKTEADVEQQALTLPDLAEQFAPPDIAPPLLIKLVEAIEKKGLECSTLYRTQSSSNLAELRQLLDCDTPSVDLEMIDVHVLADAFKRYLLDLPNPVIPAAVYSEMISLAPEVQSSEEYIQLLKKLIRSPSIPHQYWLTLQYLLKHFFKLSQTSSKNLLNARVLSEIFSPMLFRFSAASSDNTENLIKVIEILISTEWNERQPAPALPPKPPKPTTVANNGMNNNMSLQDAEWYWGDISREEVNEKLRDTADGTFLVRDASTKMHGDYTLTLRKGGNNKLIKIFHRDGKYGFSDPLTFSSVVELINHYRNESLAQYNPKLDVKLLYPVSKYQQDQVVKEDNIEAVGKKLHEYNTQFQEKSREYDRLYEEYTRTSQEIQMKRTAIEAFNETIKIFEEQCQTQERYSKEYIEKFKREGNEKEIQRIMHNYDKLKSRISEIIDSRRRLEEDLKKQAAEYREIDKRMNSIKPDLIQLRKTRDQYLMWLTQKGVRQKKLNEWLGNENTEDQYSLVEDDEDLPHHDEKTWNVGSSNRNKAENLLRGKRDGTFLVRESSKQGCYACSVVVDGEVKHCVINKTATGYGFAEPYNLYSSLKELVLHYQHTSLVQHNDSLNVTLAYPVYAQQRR
Experiment: Fluorescent (HTRF) determination of PI3 kinase enzyme activity, PI3Kδ
Assay type: biochemical

# compound, system, measured
records = [
    ("CC(C)Oc1ccc(-c2nn(C(C)c3oc4cccc(F)c4c(=O)c3-c3cccc(F)c3)c3ncnc(N(C)C)c23)cc1F (centres unmarked)", "PI3kδ (Homo sapiens)", "≤ 50 nM"),
    ("CC(C)C(=O)Nc1ccc(-c2nn(C(C)c3oc4cccc(F)c4c(=O)c3-c3cccc(F)c3)c3ncnc(N4CCOCC4)c23)cc1F (centres unmarked)", "PI3kδ (Homo sapiens)", "100 to 300 nM"),
    ("CC(c1oc2cccc(F)c2c(=O)c1-c1cccc(F)c1)n1cnc2c(N(C)C)ncnc21 (centres unmarked)", "PI3kδ (Homo sapiens)", "≤ 50 nM"),
    ("CC(c1oc2cccc(F)c2c(=O)c1-c1cccc(F)c1)n1nc(-c2cc3ccccc3o2)c2c(N)ncnc21 (centres unmarked)", "PI3kδ (Homo sapiens)", "50 to 100 nM"),
    ("CC(C)Oc1ccc(-c2nn(C(C)c3oc4cccc(F)c4c(=O)c3-c3ccccc3)c3ncnc(N)c23)cc1F (racemic) [Example 100]", "PI3kδ (Homo sapiens)", "100 to 300 nM"),
    ("CC(C)Oc1ccc(-c2nn(Cc3oc4cccc(F)c4c(=O)c3-c3cccc(F)c3)c3ncnc(N)c23)cc1F", "PI3kδ (Homo sapiens)", "50 to 100 nM"),
    ("CC(c1oc2cccc(F)c2c(=O)c1-c1cccc(F)c1)n1nc(-c2ccc(-c3nnc(N)s3)cc2)c2c(N)ncnc21 (centres unmarked)", "PI3kδ (Homo sapiens)", "50 to 100 nM"),
    ("CC(C)Oc1ccc(-c2nn(C(C)c3oc4cccc(F)c4c(=O)c3-c3cccc(F)c3)c3ncnc(N)c23)cc1F (single isomer, unassigned; (+)) [Example 7]", "PI3kδ (Homo sapiens)", "≤ 50 nM"),
]

INPUT: Find the measured IC50 of CNc1ncnc2c1c(-c1ccc(OC(C)C)c(F)c1)nn2C(C)c1oc2cccc(F)c2c(=O)c1-c1cccc(F)c1 (centres unmarked) and report it.
OUTPUT: ≤ 50 nM

INPUT: Find the measured IC50 of CC(c1oc2cccc(F)c2c(=O)c1-c1cccc(F)c1)n1ncc2c(N)ncnc21 (centres unmarked) and report it.
OUTPUT: 50 to 100 nM

INPUT: Find the measured IC50 of CC(C)Nc1ccc(-c2nn(C(C)c3oc4cccc(F)c4c(=O)c3-c3cccc(F)c3)c3ncnc(N)c23)cc1F (centres unmarked) and report it.
OUTPUT: 50 to 100 nM
